# growth per record follows
# Tested on: HL-60(TB) leukemia
# Test: NCI-60 one-dose screen, 48 h (100 = growth as untreated, 0 = no growth, -100 = all killed)
# Condition info: 10 µM unless noted
Compounds without any hit were thinned out: in the full panel of roughly 83,000, 20% have a hit.
Readout: growth (%)

- Mol smiles: "CC/C(=C(/c1ccc(Cl)cc1)c1ccc(OCCN2CCCCC2)cc1)c1ccc(Cl)cc1"
  Target under test: "HL-60(TB) leukemia"
  Readout: "growth"
  Readout value: 68.5
- Mol smiles: "COc1ccc(Nc2nc(NCc3ccccc3)c3ccccc3n2)cc1"
  Target under test: "HL-60(TB) leukemia"
  Readout: "growth"
  Readout value: 89.5
- Mol smiles: "CCCCCN(CCCCC)CCCCCCCCN1CCCc2ccccc21"
  Target under test: "HL-60(TB) leukemia"
  Readout: "growth"
  Readout value: -14.2
- Mol smiles: "Cc1ccc(C)n1-c1ccsc1C(=O)NNC(=O)CCl"
  Target under test: "HL-60(TB) leukemia"
  Readout: "growth"
  Readout value: 104
- Mol smiles: "C=C(Cl)C(=NC(C)(C)C)Nc1ccccc1C"
  Target under test: "HL-60(TB) leukemia"
  Readout: "growth"
  Readout value: 43.3
- Mol smiles: "CN(C(=S)S(=O)(=O)C12CC3CC(CC(C3)C1)C2)c1ccccc1"
  Target under test: "HL-60(TB) leukemia"
  Readout: "growth"
  Readout value: 11.5

----------
# Tested on: HT29 colon
# Test: NCI-60 one-dose screen, 48 h (100 = growth as untreated, 0 = no growth, -100 = all killed)
# Condition info: 10 µM unless noted
The panel holds about 83,000 compounds, 20% with a hit somewhere; the sample as a whole holds those more often.

- Compound: "CCCCN(CCCC)CC(O)c1ccccc1 (stereo not given)"
  Unit of measurement: "%"
  growth: 109
- Compound: "C[CH2][Sn]([CH2]C)([CH2]C)[NH]S(=O)(=O)c1ccc(C)cc1"
  Unit of measurement: "%"
  growth: 116
- Compound: "CCCCCCCCCCOc1ccc(C(=O)Oc2ccc(CSP3(=O)OCC4OC(n5ccc(=O)[nH]c5=O)C(F)C4OP(=O)(O)OCC4OC(n5cnc6c(N)ncnc65)C(F)C4O3)cc2)cc1 (stereo not given)"
  Unit of measurement: "%"
  growth: 79.3
- Compound: "COc1cc[c]([Hg][Cl])cc1"
  Unit of measurement: "%"
  growth: 48.5
- Compound: "C[C@@H]1CC[C@@H]2[C@@H]1[C@H](OC(=O)/C=C/C1CCCCC1)[C@]1(C3CCCCC3)C[C@@H](OC(=O)CO)[C@@]2(C)O1"
  Unit of measurement: "%"
  growth: 31.4
- Compound: "CC(C)(C)NCC(O)c1ccccc1Cl (stereo not given)"
  Unit of measurement: "%"
  growth: 2.91
- Compound: "CCC1([N+](=O)[O-])COP(=O)(NCc2cccnc2)OC1 (stereo not given)"
  Unit of measurement: "%"
  growth: 116
- Compound: "n1nc(-c2nonc2-c2nn[nH]n2)n[nH]1"
  Unit of measurement: "%"
  growth: 107
- Compound: "N#C[Se]CCN1C(=O)C2C(C1=O)[C@H]1C=C[C@@H]2S1 (stereo not given in full)"
  Unit of measurement: "%"
  growth: 5.94
- Compound: "NC(Cc1ccc(O)cc1)C(=O)N/N=C/c1ccc(N(CCCl)CCCl)cc1 (stereo not given)"
  Unit of measurement: "%"
  growth: 100
- Compound: "ClCCN(CCCl)c1ccc(C=NCCc2c[nH]c3ccccc23)cc1"
  Unit of measurement: "%"
  growth: 85.1
- Compound: "N#[N+]c1nc2nc(N)[nH]c(=O)c2[nH]1"
  Unit of measurement: "%"
  growth: 104
- Compound: "CC(=O)[O][Hg][CH2]C1(C)COC(C)([CH2][Hg][O]C(C)=O)CO1 (stereo not given)"
  Unit of measurement: "%"
  growth: -25.6
- Compound: "CC(=O)O[C@@H]1C2=C(C)C3(CC3)[C@@](C)(O)C(=O)C2=C[C@@]1(C)CO"
  Unit of measurement: "%"
  growth: 5.12
- Compound: "Nc1c(Br)cc2c3c(cccc13)-c1ccccc1-2"
  Unit of measurement: "%"
  growth: 103
- Compound: "CC(=O)Nc1ccc(C=C2C(=O)NC(=O)NC2=O)cc1"
  Unit of measurement: "%"
  growth: 109
- Compound: "ClCCN(CCCl)c1nc(Cl)c(C2CC(c3ccc(Cl)cc3)=NN2c2cc(Cl)cc(Cl)c2)s1 (stereo not given)"
  Unit of measurement: "%"
  growth: 94.4
- Compound: "CCN1CC2(CN(CC)C1=S)C(=O)NC(=O)NC2=O"
  Unit of measurement: "%"
  growth: 90.3
- Compound: "O=[As]c1ccc(C(=O)c2ccc(Oc3ccccc3)cc2)cc1 (stereo not given)"
  Unit of measurement: "%"
  growth: -77.6
- Compound: "CC1=C(SCCC(=O)OCC(=O)NCCC[Te]c2ccccc2)C(=O)c2ccccc2C1=O"
  Unit of measurement: "%"
  growth: 11.2
- Compound: "Cc1cc(NC(=O)CCc2ccc(N3C(N)=NC(N)=NC3(C)C)cc2)ccc1S(=O)(=O)F"
  Unit of measurement: "%"
  growth: 24.7
- Compound: "O=C1NC(=O)C(O)(C2(O)C(=O)NC(=O)NC2=O)C(=O)N1"
  Unit of measurement: "%"
  growth: 104
- Compound: "Nc1c(Br)cc([N+](=O)[O-])cc1[N+](=O)[O-]"
  Unit of measurement: "%"
  growth: 103
- Compound: "O=C(O)C1[O][Sb][O]C1C(=O)O (stereo not given)"
  Unit of measurement: "%"
  growth: 104
- Compound: "O=[N+]([O-])c1cccc([As]=[As]c2cccc([N+](=O)[O-])c2)c1 (stereo not given)"
  Unit of measurement: "%"
  growth: -61.6

Origin of values: PubChem BioAssay (NCI)
